All values here come from patent US9096596B2.

Target: P2X7 (Homo sapiens (Human), UniProt Q99572)
Sequence (Q99572 whole entry): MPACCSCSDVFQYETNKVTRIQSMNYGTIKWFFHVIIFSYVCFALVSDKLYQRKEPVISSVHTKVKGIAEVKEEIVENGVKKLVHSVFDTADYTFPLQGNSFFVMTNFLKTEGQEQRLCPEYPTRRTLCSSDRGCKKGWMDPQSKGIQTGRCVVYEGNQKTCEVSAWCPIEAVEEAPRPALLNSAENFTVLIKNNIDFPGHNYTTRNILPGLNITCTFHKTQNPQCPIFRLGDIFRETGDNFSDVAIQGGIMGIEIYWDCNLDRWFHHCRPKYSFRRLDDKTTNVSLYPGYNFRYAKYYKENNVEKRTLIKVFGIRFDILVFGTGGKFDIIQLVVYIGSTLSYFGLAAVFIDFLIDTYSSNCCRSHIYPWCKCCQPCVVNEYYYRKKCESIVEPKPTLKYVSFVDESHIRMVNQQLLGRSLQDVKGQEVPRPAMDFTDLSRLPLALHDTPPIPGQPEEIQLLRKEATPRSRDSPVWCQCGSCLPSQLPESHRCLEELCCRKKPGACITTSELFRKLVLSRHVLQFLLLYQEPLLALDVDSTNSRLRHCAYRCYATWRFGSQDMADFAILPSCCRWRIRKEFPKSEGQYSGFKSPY
Test: Ca2+ flux (FLIPR) in 1321N1 cells expressing recombinant human P2X7 channel
Format: cell-based
Settings: 250 μM BzATP, Calcium-4 dye
pIC50: −log10 of the molar value.
experimental.readout: pIC50

Here are 3 compounds together with their reported answers.
{"compound": "CC1Cc2c(ncnc2-c2ccn[nH]2)CN1C(=O)c1cccc(C(F)(F)F)c1Cl (stereo not shown) [Example 62]", "pIC50": 8.11}
{"compound": "CN(C)c1nc2c(c(-c3ccn[nH]3)n1)CCN(C(=O)c1cccc(C(F)(F)F)c1Cl)C2 [Example 54]", "pIC50": 7.68}
{"compound": "O=C(c1cccc(C(F)(F)F)c1Cl)N1CCc2c(nc(C3CC3)nc2-c2ccn[nH]2)C1 [Example 57]", "pIC50": 7.78}

I = Cc1nc2c(c(-c3ccn[nH]3)n1)CC(C)N(C(=O)c1cccc(F)c1C)C2 (stereo not shown) [Example 134]
II = Cc1nc2c(c(-c3ccn[nH]3)n1)CCN(C(=O)c1ccc(Cl)c(F)c1Cl)C2 [Example 53]
Problem: Given the two records I and II , choose the one whose pIC50 value is lower. Which one? Tell me its label.
Result: I

A = Cn1ccc(-c2ncnc3c2CCN(C(=O)c2cccc(C(F)(F)F)c2Cl)C3)n1 [Example 19]
B = Cc1nc2c(c(-c3ccn[nH]3)n1)CC(C)N(C(=O)c1ccc(F)cc1C)C2 (stereo not shown) [Example 133]
Problem: For A and B , which recorded pIC50 is lower? Give the label of your selection.
Result: B

1 = Cc1nc2c(c(-c3ccn[nH]3)n1)CC(C)N(C(=O)c1ccc(Cl)cc1F)C2 (stereo not shown) [Example 87]
2 = O=C(c1cccc(C(F)(F)F)c1Cl)N1CCc2c(ncnc2-c2ccn[nH]2)C1 [Example 18]
3 = O=C(c1cccc(C(F)(F)F)c1Cl)N1CCc2c(ncnc2-c2cccc(F)n2)C1 [Example 130]
4 = O=C(c1cccc(Cl)c1Cl)N1CCc2c(ncnc2-c2cn[nH]c2)C1 [Example 4]
Problem: Sort ascending by pIC50. To answer, arrange all of the labels according to the requested order.
Result: 4, 1, 3, 2

I = Cc1nc2c(c(-c3ccn[nH]3)n1)C[C@@H](C)N(C(=O)c1cccc(C(F)(F)F)c1C)C2 (single isomer, unassigned) [Example 78]
II = Cc1c(C(=O)N2CCc3c(ncnc3-c3cnccn3)C2)cccc1C(F)(F)F [Example 15]
Problem: Could you tell me which of I and II has the lower pIC50 reading? Record your answer as the label of the chosen record.
Result: II
(II: 7.50, I: 7.87)

A = O=C(c1cccc(C(F)(F)F)c1Cl)N1CCc2c(ncnc2-c2cscn2)C1 [Example 43]
B = Cc1nc2c(c(-c3ccn[nH]3)n1)CC(C)N(C(=O)c1cccc(C)c1C)C2 (stereo not shown) [Example 132]
Problem: Could you check which of A and B has a smaller value for pIC50? Write the label of whichever entry you select.
Result: B
(B: 6.27, A: 7.80)

###

Biological target: P2X7 (Homo sapiens (Human))
Experiment: P2X7 antagonism in human PBMCs (IL-1β release, ELISA)
Type: cell-based
Details: test compound 10 μM, IL-1β release in human PBMCs, LPS 30 ng/ml + Bz-ATP 0.5 mM, read-out: PBMC 10 μM (% control)
experimental.readout: remaining activity at 10 µM (%)

I = Cc1nc2c(c(-c3ccn[nH]3)n1)CC(C)N(C(=O)c1ccc(F)cc1F)C2 (centres unmarked)
II = O=C(c1ccc(F)cc1Cl)N1CCc2c(ncnc2-c2ccn[nH]2)C1
Problem: Thinking about recorded remaining activity at 10 µM values, which is higher, I or II ? Your answer should be the label of the entry you select.
Result: I
(I: -1.7%, II: -15.5%)

a = Cc1cccc(C(=O)N2CCc3c(ncnc3-c3ccn[nH]3)C2)c1C
b = Cc1nc2c(c(-c3ccn[nH]3)n1)CC(C)N(C(=O)c1ccc(Cl)cc1F)C2 (centres unmarked)
Problem: Which of the two items, a and b , has the greater recorded remaining activity at 10 µM? In your reply, give the label of the chosen option.
Result: a
